B1: CPEB3 Ribozyme (parent)
chain: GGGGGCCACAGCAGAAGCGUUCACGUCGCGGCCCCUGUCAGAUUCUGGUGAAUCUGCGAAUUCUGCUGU

- Variants of: B1
- METHOD NOTES: self-cleavage, relative activity (ratio to wild type); higher = more cleavage; co-transcriptional
Label yes when self-cleavage >= 0.6; otherwise no.

> print(dat)
                            sequence.content  class
 1  GGGGGCCACAGCAGAAGCGUUCACGUCGCGGCCCCUGUGAGAUUCUGGUGAAUCUGCGAAUUCUGCAGU [C39G U67A]    yes
 2  GGGGGCCACAGCAGAACCGUUCACGUCGCGGCCCCUGUCAGAUUCUAGUGAAUCUGCGAAUUCUGCUGU [G17C G47A]     no
 3  GGGGGCGACAGCAGUAGCGUUCACGUCGCGGCCCCUGUCAGAUUCUGGUGAAUCUGCGAAUUCUGCUGU [C7G A15U]     no
 4  GGGGGCCACAGCUGAAGCGUUCACGUCGCGACCCCUGUCAGAUUCUGGUGAAUCUGCGAAUUCUGCUGU [A13U G31A]    yes
 5  GGGAGCCACAGCAGAAGCGUUCACGUCGCGGCCCCUGUCAGAUUCUGGUGAAUCAGCGAAUUCUGCUGU [G4A U55A]    yes
 6  GGGGGCCACAGCACAAGUGUUCACGUCGCGGCCCCUGUCAGAUUCUGGUGAAUCUGCGAAUUCUGCUGU [G14C C18U]     no
 7  GGGGGCCACAGCAGAAGCGUUCACGUCGCGGCCCCUGUCAGAUUAUAGUGAAUCUGCGAAUUCUGCUGU [C45A G47A]    yes
 8  GGGGGCCACAGCAGAAGCGUUCACGUUGCGGCCCCUGUCAGAUUCUGGCGAAUCUGCGAAUUCUGCUGU [C27U U49C]     no
 9  GGGGGCCACAGCAGAAGCGUUCACGUCGCGGCCCCUGGCAGAUUCUGGUGAUUCUGCGAAUUCUGCUGU [U38G A52U]     no
10  GGGGGGCACAGCAGAAGCGCUCACGUCGCGGCCCCUGUCAGAUUCUGGUGAAUCUGCGAAUUCUGCUGU [C6G U20C]     no
11  GGGGGCCACAGCAGAAGCGUUCACGUCGCGGCCCCUGUCAGAUUCUGGUGAAUCUGGGAAUCCUGCUGU [C57G U62C]     no
12  GGGGGCCACAGCAGAAGCGUUCACGUCGCUGCCCCUGUCAGAUUCUGGUGAAUCUGCGAAAUCUGCUGU [G30U U61A]     no
13  GGGGGCCACAGCAGAAUCGUUCACGUCGCGGCCCCUGUCAGAUUCUGGUGAAUCUGCGAAUUCUGCUGA [G17U U69A]    yes
14  GGGGGGCACAGCAUAAGCGUUCACGUCGCGGCCCCUGUCAGAUUCUGGUGAAUCUGCGAAUUCUGCUGU [C6G G14U]     no
15  GGGGGCCUCAGCAGAAGCGUUCACGUCGCGGCCCCUGUCAGAUUAUGGUGAAUCUGCGAAUUCUGCUGU [A8U C45A]    yes
16  GGGGGCCACAGCAGAAGCGUUCACGUCCCGGCCCCUGUCAGAUUCUGGUGAAUCUGCGAAAUCUGCUGU [G28C U61A]     no
17  GGGGGCCACAGCAGAAGCGUUCACGCCGCGGCCCCUGUCAGAUUGUGGUGAAUCUGCGAAUUCUGCUGU [U26C C45G]    yes
18  GGGGGCCACUGCAGAAGCGUUAACGUCGCGGCCCCUGUCAGAUUCUGGUGAAUCUGCGAAUUCUGCUGU [A10U C22A]     no
19  GGGGGCCACAGCAGAAGCGCUCACGUCGCGGCCCCUCUCAGAUUCUGGUGAAUCUGCGAAUUCUGCUGU [U20C G37C]     no
20  GGGAGCCACAGCAGAAGCGUUCACGUCGCGGCCCCUGUCAGAUUCUGGUGAAUCUGCGAAUGCUGCUGU [G4A U62G]     no
21  GGGGGCCACAGCAGAAGCGUUCACGUCGCGGCCCCUGUCACAUUCUGGUGAAUCUGCGAAUUCUGCUGU [G41C]    yes
22  GGGGGCCACAGCAGAAGCGUUCAGGUCGCGGCCCCUGUCAGAUUCUGGUGAAUCUGCGAAUUCUCCUGU [C24G G65C]     no
23  GGGGGCCACAGCAGACGCGUUCACGUCGCGGCCCCUGUCAGGUUCUGGUGAAUCUGCGAAUUCUGCUGU [A16C A42G]     no
24  GGGGGCCACAGCAGAAGCGUUCACGCCGCGGCCCCUGUCAGAUUCUGGUGAAUCUGCGAAUUCUGCUCU [U26C G68C]    yes
25  GGGGGCCACAGCAGAAGCGUUCACGACGCGGCCCGUGUCAGAUUCUGGUGAAUCUGCGAAUUCUGCUGU [U26A C35G]     no
26  GGGCGCCACAGCAGAAGCGUUCACGUCGUGGCCCCUGUCAGAUUCUGGUGAAUCUGCGAAUUCUGCUGU [G4C C29U]     no
27  GGGGGCCACAGCAGAAGCGUUCACGUCGCGGCCCCUGUCAGAUACUAGUGAAUCUGCGAAUUCUGCUGU [U44A G47A]    yes
28  GGGGGCCACAGCAGAAGCGUUCACGUCGGGGCUCCUGUCAGAUUCUGGUGAAUCUGCGAAUUCUGCUGU [C29G C33U]     no
29  GGGGGCCACAGCAGAAGCGUUCACGUCGCGGCCCCUGUCAGAUUCUGGUGCAUCGGCGAAUUCUGCUGU [A51C U55G]     no
30  GGGGGCCACAGCAGAAGCGUUCACGACGCGGCCCCUGUCAGAUUCUGGUGAAUCUGCGAAAUCUGCUGU [U26A U61A]     no
31  GGGGGCCACAGCAGAAGCGUUCACGUCGCGGUCCCCGUCAGAUUCUGGUGAAUCUGCGAAUUCUGCUGU [C32U U36C]    yes
32  GGGGGCCGCAGCAGAAGCGUUCCCGUCGCGGCCCCUGUCAGAUUCUGGUGAAUCUGCGAAUUCUGCUGU [A8G A23C]    yes
33  GGGGGUCACAGCAGAAGCGUUCACAUCGCGGCCCCUGUCAGAUUCUGGUGAAUCUGCGAAUUCUGCUGU [C6U G25A]     no
34  GGGGGCCACAGCAGAAUCGUUCACGUCGCGGCCCCUGUCCGAUUCUGGUGAAUCUGCGAAUUCUGCUGU [G17U A40C]     no
35  GGGGGCCACAGCAGUAGCGUUCACGUCGCGGCCCCUGUCAGAUUCUGUUGAAUCUGCGAAUUCUGCUGU [A15U G48U]    yes
36  GGGAGCCACAGCAGAAGCGUUCACGUCGCGGUCCCUGUCAGAUUCUGGUGAAUCUGCGAAUUCUGCUGU [G4A C32U]     no
